meta.source: ChEMBL document CHEMBL5042543

For each entry below, report its half-life value.
- method description: Half life in Wistar rat at 1 mg/kg, ip
- Assay type: ADME, organism-based
- test conditions: in vivo
Unit h implied. Number only.

The reported half-life of the compound `O=C(O)c1cc(-c2ccc([C@@H]3C[C@@H]4C[C@H]3NC4=O)cc2)c2ccc(-c3ccc(C(F)(F)F)cc3)cc2c1` was 4.59

The reported half-life of the compound `O=C(O)c1cc(-c2ccc([C@H]3C[C@H]4C[C@@H]3CN4)cc2)c2ccc(-c3ccc(C(F)(F)F)cc3)cc2c1` was 8.94

###

- method description: Aqueous solubility of the compound at pH 7.4
- test conditions: buffer
Lab note: anything with solubility at or over 0.2 µg/mL counts as T; the rest go in F.

Is solubility at least 0.2 µg/mL? Consider O=C(O)c1cc(-c2ccc(C3[C@H]4CC[C@H]3CNC4)cc2)c2ccc(-c3ccc(C(F)(F)F)cc3)cc2c1 (stereo partly specified)
F

Is solubility at least 0.2 µg/mL? Consider O=C(O)c1cc(-c2ccc(C3CC4CCC(C3)N4)cc2)c2ccc(-c3ccc(C(F)(F)F)cc3)cc2c1 (stereo unspecified)
F

Is solubility at least 0.2 µg/mL? Consider O=C(O)c1cc(-c2ccc(C3(O)[C@H]4CC[C@H]3CN(Cc3ccccc3)C4)cc2)c2ccc(-c3ccc(C(F)(F)F)cc3)cc2c1 (stereo partly specified)
F

Is solubility at least 0.2 µg/mL? Consider O=C(O)c1cc(-c2ccc(C3(O)[C@H]4CC[C@H]3CNC4)cc2)c2ccc(-c3ccc(C(F)(F)F)cc3)cc2c1 (stereo partly specified)
T

Is solubility at least 0.2 µg/mL? Consider O=C(O)c1cc(-c2ccc([C@H]3CCN[C@@H]4C[C@H]34)cc2)c2ccc(-c3ccc(C(F)(F)F)cc3)cc2c1 (relative stereo)
T

Is solubility at least 0.2 µg/mL? Consider CC(=O)N1C[C@@H]2C[C@H]1C[C@H]2c1ccc(-c2cc(C(=O)O)cc3cc(-c4ccc(C(F)(F)F)cc4)ccc23)cc1 (racemic)
T

###

- experimental system: Kappa-type opioid receptor (Homo sapiens, UniProt P41145)
- Sequence (P41145 whole entry): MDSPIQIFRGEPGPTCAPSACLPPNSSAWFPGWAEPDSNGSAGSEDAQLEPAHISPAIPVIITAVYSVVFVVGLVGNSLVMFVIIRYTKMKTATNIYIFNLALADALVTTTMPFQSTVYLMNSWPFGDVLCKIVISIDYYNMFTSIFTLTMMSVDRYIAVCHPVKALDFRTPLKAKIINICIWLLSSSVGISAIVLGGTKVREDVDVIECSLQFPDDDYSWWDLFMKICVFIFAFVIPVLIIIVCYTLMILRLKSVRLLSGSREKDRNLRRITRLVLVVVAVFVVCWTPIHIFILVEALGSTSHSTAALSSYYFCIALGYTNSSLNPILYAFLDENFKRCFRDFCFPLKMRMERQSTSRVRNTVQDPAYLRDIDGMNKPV
- method description: Inhibition of KOR (unknown origin) assessed as binding constant
pKi: −log10 of the molar value.
experimental endpoint: pKi

The reported pKi of the molecule O=C(O)c1cc(-c2ccc(C3CCNC3)cc2)c2ccc(-c3ccc(C(F)(F)F)cc3)cc2c1 (racemic) was < 6.00

###

- experimental system: P2Y purinoceptor 14 (Homo sapiens)
- Sequence (Q15391 whole entry): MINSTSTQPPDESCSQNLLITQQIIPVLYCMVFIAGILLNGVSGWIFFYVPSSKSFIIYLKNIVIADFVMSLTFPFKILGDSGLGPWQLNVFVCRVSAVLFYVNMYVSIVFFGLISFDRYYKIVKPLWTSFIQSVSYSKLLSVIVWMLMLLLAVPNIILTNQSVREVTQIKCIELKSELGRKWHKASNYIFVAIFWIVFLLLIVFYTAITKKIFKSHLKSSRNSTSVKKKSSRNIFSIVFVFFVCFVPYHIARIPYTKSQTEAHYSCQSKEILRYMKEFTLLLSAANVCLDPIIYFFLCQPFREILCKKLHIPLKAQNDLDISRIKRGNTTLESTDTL
pIC50: −log10 of the molar value.
Lab note: anything with pIC50 at or over 7 counts as MET; the rest go in NOT MET.

Is pIC50 at least 7? Consider O=C(O)c1cc(-c2ccc([C@@]3(O)C[C@H]4CC[C@@H]3CN4)cc2)c2ccc(-c3ccc(C(F)(F)F)cc3)cc2c1 (racemic)
MET

Is pIC50 at least 7? Consider O=C(O)c1cc(-c2ccc(C3CC4CCC(C3)N4)cc2)c2ccc(-c3ccc(C(F)(F)F)cc3)cc2c1 (configuration not stated)
MET

Is pIC50 at least 7? Consider COC1(c2ccc(-c3cc(C(=O)O)cc4cc(-c5ccc(C(F)(F)F)cc5)ccc34)cc2)[C@H]2CC[C@H]1CNC2 (some centres not stated)
MET

Is pIC50 at least 7? Consider `CCOC(=O)N1C[C@H]2C[C@@H]1C[C@@H]2c1ccc(-c2cc(C(=O)O)cc3cc(-c4ccc(C(F)(F)F)cc4)ccc23)cc1`
NOT MET

Is pIC50 at least 7? Consider `N[C@H]1C[C@@H](C(=O)O)C[C@@H]1c1ccc(-c2cc(C(=O)O)cc3cc(-c4ccc(C(F)(F)F)cc4)ccc23)cc1`
NOT MET

Is pIC50 at least 7? Consider O=C(O)c1cc(-c2ccc(C34CCNCC3C4)cc2)c2ccc(-c3ccc(C(F)(F)F)cc3)cc2c1 (racemic)
MET

###

- experimental system: P2Y purinoceptor 14 (Homo sapiens)
- Sequence (Q15391 whole entry): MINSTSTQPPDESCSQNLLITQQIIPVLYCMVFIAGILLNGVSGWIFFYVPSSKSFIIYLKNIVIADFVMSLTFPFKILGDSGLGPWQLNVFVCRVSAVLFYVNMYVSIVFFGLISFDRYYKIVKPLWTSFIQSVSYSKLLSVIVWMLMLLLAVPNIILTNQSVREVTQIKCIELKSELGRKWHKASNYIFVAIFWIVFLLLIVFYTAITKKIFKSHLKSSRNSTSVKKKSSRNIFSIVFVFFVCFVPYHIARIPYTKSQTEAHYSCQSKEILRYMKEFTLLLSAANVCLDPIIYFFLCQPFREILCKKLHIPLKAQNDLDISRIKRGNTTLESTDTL
Please assign no whenever IC50 is at or above 0.1 µM, and yes whenever it is below.

Strictly below 0.1 µM in IC50? O=C(O)c1cc(-c2ccc(C3(O)[C@H]4CC[C@H]3CNC4)cc2)c2ccc(-c3ccc(C(F)(F)F)cc3)cc2c1 (stereo not given in full)
yes

Strictly below 0.1 µM in IC50? O=C(O)c1cc(-c2ccc(C3[C@H]4CC[C@H]3CNC4)cc2)c2ccc(-c3ccc(C(F)(F)F)cc3)cc2c1 (stereo not given in full)
no

Strictly below 0.1 µM in IC50? O=C(O)c1cc(-c2ccc(C3CC4CCC3CN4)cc2)c2ccc(-c3ccc(C(F)(F)F)cc3)cc2c1 (stereo not given)
yes

Strictly below 0.1 µM in IC50? `CC(=O)N1C[C@@H]2C[C@H]1C[C@H]2c1ccc(-c2cc(C(=O)O)cc3cc(-c4ccc(C(F)(F)F)cc4)ccc23)cc1`
yes

Strictly below 0.1 µM in IC50? O=C(O)c1cc(-c2ccc([C@]3(O)C[C@H]4CC[C@@H]3CN4)cc2)c2ccc(-c3ccc(C(F)(F)F)cc3)cc2c1 (racemic)
no

###

For each entry below, report its pKi value.
- experimental system: D(1B) dopamine receptor (Homo sapiens)
- Sequence (P21918 whole entry): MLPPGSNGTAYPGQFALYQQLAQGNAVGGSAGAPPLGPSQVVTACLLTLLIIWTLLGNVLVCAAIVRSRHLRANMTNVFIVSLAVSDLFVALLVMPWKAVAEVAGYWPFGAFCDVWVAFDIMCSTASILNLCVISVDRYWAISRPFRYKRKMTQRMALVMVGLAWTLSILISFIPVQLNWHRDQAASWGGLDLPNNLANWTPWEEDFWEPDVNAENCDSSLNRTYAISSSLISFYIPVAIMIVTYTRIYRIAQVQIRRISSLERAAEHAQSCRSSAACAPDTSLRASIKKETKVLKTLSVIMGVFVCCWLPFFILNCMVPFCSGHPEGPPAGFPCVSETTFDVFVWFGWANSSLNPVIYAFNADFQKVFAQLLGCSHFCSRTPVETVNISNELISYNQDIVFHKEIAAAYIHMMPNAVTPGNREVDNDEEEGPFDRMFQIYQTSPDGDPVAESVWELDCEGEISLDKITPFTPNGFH
- method description: Inhibition of dopamine D5 receptor (unknown origin) assessed as binding constant
pKi: −log10 of the molar value.

The reported pKi of the molecule `O=C(O)c1cc(-c2ccc([C@H]3C[C@H]4C[C@@H]3NC4=O)cc2)c2ccc(-c3ccc(C(F)(F)F)cc3)cc2c1` was < 6.00

The reported pKi of the molecule `CC(=O)N1C[C@@H]2C[C@H]1C[C@H]2c1ccc(-c2cc(C(=O)O)cc3cc(-c4ccc(C(F)(F)F)cc4)ccc23)cc1` was < 6.00

The reported pKi of the molecule `O=C(O)c1cc(-c2ccc([C@@H]3C[C@@H]4C[C@H]3CN4)cc2)c2ccc(-c3ccc(C(F)(F)F)cc3)cc2c1` was < 6.00

###

- method description: Distribution coefficient, logD of compound at pH 7.4 by HPLC analysis
- Format: physicochemical
- test conditions: octanol/water, read-out: logD
For each entry below, report its logD value.
Hey, just send me the number, nothing else.

The reported logD of the compound `N[C@H]1C[C@@H](CO)[C@H](c2ccc(-c3cc(C(=O)O)cc4cc(-c5ccc(C(F)(F)F)cc5)ccc34)cc2)C1` was 0.96

The reported logD of the compound `N[C@@H]1C[C@H](CO)C[C@H]1c1ccc(-c2cc(C(=O)O)cc3cc(-c4ccc(C(F)(F)F)cc4)ccc23)cc1` was 1.1

The reported logD of the compound CC1CNCCC1c1ccc(-c2cc(C(=O)O)cc3cc(-c4ccc(C(F)(F)F)cc4)ccc23)cc1 (stereo not drawn) was 2.8

The reported logD of the compound O=C(O)c1cc(-c2ccc(C3CC4CCC3CN4)cc2)c2ccc(-c3ccc(C(F)(F)F)cc3)cc2c1 (stereo not drawn) was 1.7

The reported logD of the compound O=C(O)c1cc(-c2ccc(C3CCNC3)cc2)c2ccc(-c3ccc(C(F)(F)F)cc3)cc2c1 (racemic) was 1.9

The reported logD of the compound CC1CC(c2ccc(-c3cc(C(=O)O)cc4cc(-c5ccc(C(F)(F)F)cc5)ccc34)cc2)CCN1 (stereo not drawn) was 2.1

The reported logD of the compound CC(=O)N1C[C@@H]2C[C@H]1C[C@H]2c1ccc(-c2cc(C(=O)O)cc3cc(-c4ccc(C(F)(F)F)cc4)ccc23)cc1 (racemic) was 0.92

The reported logD of the compound `N[C@@H]1C[C@H](C(=O)O)C[C@H]1c1ccc(-c2cc(C(=O)O)cc3cc(-c4ccc(C(F)(F)F)cc4)ccc23)cc1` was -0.48
